Assay Overview: NCI Yeast Anticancer Drug Screen. Data for the mec2-1 strain (AID 157)
Test Parameters: S. cerevisiae mec2-1 strain, at 5.0 µM (retest, dose inferred, filed as 0.5), hits give high values
Method: Growth inhibition of yeast strains with defined genetic alterations is measured as a screen for potential anti-cancer activity. Selected strains with alterations in DNA damage repair or cell cycle control were exposed to compounds and growth inhibition was measured relative to vehicle treated controls. The strain used in this assay is mec2-1
Compounds without any hit were thinned out: in the full panel of roughly 79,000, 15% have a hit.
Quantity Measured: growth inhibition (%)
Answer with a number only, understood to be in %.

Molecule | Observed Result
CS/C(C#N)=C(\C#N)SC | 3

*Q* Entry `CCCC(=O)NCCNC(=O)CCC` needs its growth inhibition filled in; supply it.
*A* -48

*Q* Note growth inhibition for the molecule shown: `CCCCCC/C=C\C=O`
*A* -6

*Q* Give recorded growth inhibition. `O=c1[nH]c(=O)c2n[nH]nc2[nH]1`
*A* -1

*Q* Read off the recorded growth inhibition for CC(NNC(=S)N1CCCC1)c1ccccn1 (stereo not given)
*A* 52

*Q* Give the value of growth inhibition reported for the following: `O=C(Nc1ccccc1)c1ccc([N+](=O)[O-])o1`
*A* 3

*Q* Answer with the recorded growth inhibition for the molecule listed here: `CN(C)c1cc[c]([Sn]([c]2ccc(N(C)C)cc2)([c]2ccc(N(C)C)cc2)[c]2ccc(N(C)C)cc2)cc1`
*A* 4

*Q* Given the molecule CCOC(=O)c1cnccc1CC1(C#N)c2ccccc2C=CN1C(=O)c1ccccc1 (stereo not given) , write its reported growth inhibition.
*A* -2

*Q* State, in one line, measured growth inhibition of C[N+]1(Cc2ccc([N+](=O)[O-])cc2)CCC[C@H]1c1ccc[n+](Cc2ccc([N+](=O)[O-])cc2)c1 (stereo not given in full)
*A* -1

*Q* Return the recorded growth inhibition value; entry: CCN1CCC(O)(/C=C/c2ccc(Cl)c(Cl)c2)C(C(=O)/C=C/c2ccc(Cl)c(Cl)c2)C1 (stereo not given)
*A* 99

*Q* Name the recorded growth inhibition of the item `CCCC1(C)C(C#N)(C#N)C1(C#N)C#N` in your answer.
*A* 96

*Q* Note down growth inhibition recorded for `Oc1[nH]c2ccccc2c1N=NC(=S)N1CCCC1`
*A* 5

*Q* Specify measured growth inhibition for CCc1cc(-c2ccco2)c(C#N)c(=S)n1C1OC(COC(C)=O)C(OC(C)=O)C(OC(C)=O)C1OC(C)=O (stereo not given) .
*A* -15

*Q* Fill in reported growth inhibition for this entry: `CCCCCCCCCCCCCCNC(=O)C[N+](C)(C)Cc1ccccc1`
*A* 99

*Q* Specify measured growth inhibition for `O=[N+]([O-])c1ccc2c(c1)/C(=C/c1ccccc1O)c1ccccc1-2` .
*A* 81

*Q* Return growth inhibition for the following molecule: `CCOC(=O)/C(Cl)=C(\C)Nc1nc2c(ccc3ccccc32)s1`
*A* 1

*Q* Quote growth inhibition reported for `O=C1CCCC/C1=C\c1ccc(Br)cc1` please.
*A* -21

*Q* State, in one line, measured growth inhibition of `CN(Cc1cc(Cl)cc(Cl)c1O)Cc1c(O)ccc2ccccc12`
*A* 14

*Q* Look up and report measured growth inhibition for this entry: `CC(C)(C)c1cc2c3c(c1)Oc1cc(C(C)(C)C)cc4c1C3(O)c1c(cc(C(C)(C)C)cc1O4)O2`
*A* 22

*Q* // Input: `CC1(C)CC(N(C(=O)/C=C/c2ccc([N+](=O)[O-])o2)C2CCCCC2)CC(C)(C)N1` . Output its growth inhibition only.
*A* -3
